# SYSTEM_NAME: human CXCR2 (Homo sapiens, UniProt P25025)
# EXPERIMENT: CXCR2 inhibition: calcium fluorescence assay (FLIPR)
# APPLIED_CONDITIONS: chemokine IL-8; CHO-K1 cells stably transfected with human CXCR2 and Gα16; calcium response (Fluo-4)
MEASUREMENT_LABEL: IC50 (nM)
The reply should contain only the number, in nM.

Sample records with IC50:
- COMPOUND: "CC(C)(NC(=O)c1ccc2sccc2c1OCc1ccc(C(F)(F)F)cc1)C(=O)O"
  MEASUREMENT_LABEL: "IC50"
  REPORTED_MEASUREMENT: 1100
- COMPOUND: "Cc1cc(C(=O)NC(C)(C)C(=O)O)c(OCc2ccc(C(F)(F)F)cc2)c2c1CCC2"
  MEASUREMENT_LABEL: "IC50"
  REPORTED_MEASUREMENT: 1600

Now, please, on to the next compound.
Field IC50 (entry CCC(C)(NC(=O)c1ccc2c(c1OCc1ccc(OC(F)(F)F)cc1)CCCC2)C(=O)O (stereo not drawn) ) reads 1500

---

# SYSTEM_NAME: human CXCR2 (Homo sapiens, UniProt P25025)
# Sequence (P25025 1-360): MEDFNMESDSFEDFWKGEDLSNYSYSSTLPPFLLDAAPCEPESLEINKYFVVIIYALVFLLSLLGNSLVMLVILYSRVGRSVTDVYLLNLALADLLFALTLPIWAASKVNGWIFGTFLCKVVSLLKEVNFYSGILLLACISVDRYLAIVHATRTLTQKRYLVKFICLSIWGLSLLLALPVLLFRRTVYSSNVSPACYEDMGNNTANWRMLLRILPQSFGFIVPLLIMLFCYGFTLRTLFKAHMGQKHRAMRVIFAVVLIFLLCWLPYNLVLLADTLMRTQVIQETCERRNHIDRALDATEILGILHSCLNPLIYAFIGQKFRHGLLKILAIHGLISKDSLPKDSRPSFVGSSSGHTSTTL
# EXPERIMENT: CXCR2 inhibition: calcium fluorescence assay (FLIPR)
# APPLIED_CONDITIONS: chemokine IL-8; CHO-K1 cells stably transfected with human CXCR2 and Gα16; calcium response (Fluo-4)
MEASUREMENT_LABEL: pIC50
API: returns pIC50 as number; meaning -log10 of concentration in mol/L.

- COMPOUND: "CC(C)(NC(=O)c1ccc2c(c1OCc1nc3ccccc3s1)CCCC2)C(=O)O"
  REPORTED_MEASUREMENT: 6.22

Field pIC50 (entry CCC(C)(NC(=O)c1ccc2c(c1OCc1nc3ccccc3s1)CCCC2)C(=O)O (stereo not shown) ) reads 6.40

Field pIC50 (entry `CC(C)(NC(=O)c1ccc2ccsc2c1OCc1ccc(C(F)(F)F)cc1)C(=O)O` ) reads 6.15

Field pIC50 (entry `CC(C)(NC(=O)c1ccc2c(c1OCc1ccc(C(F)(F)F)cc1F)CCCC2)C(=O)O` ) reads 5.74

// data source = patent US8642643B2
